// provenance: patent US6750244B2

tested on: sound-induced seizures; experiment: Sound-induced seizures in Frings mice (reflex epilepsy); format: in vivo; details: Mus musculus; Frings mice, oral
readout: ED50 (mg/kg)
Give your result in mg/kg as a bare value.

compound="C[C@H](N)CC(c1cccc(F)c1)c1cccc(F)c1 [Compound 50]" measurement_target="sound-induced seizures" unit_label=mg/kg numeric_readout=9
compound="CNCCC(c1cccc(F)c1)c1cccc(F)c1 [Compound 60]" measurement_target="sound-induced seizures" unit_label=mg/kg numeric_readout=10
compound="CC(N)CC(c1cccc(F)c1)c1cccc(F)c1 (stereo not shown) [Compound 22]" measurement_target="sound-induced seizures" unit_label=mg/kg numeric_readout=5.1

Turning to the following compound.
Can you look up ED50 on sound-induced seizures for NCCC(c1cccc(F)c1)c1cccc(F)c1 [Compound 20, 3,3-bis(3-fluorophenyl)-1-propylamine] ?
9.7
